- experimental-target: DLK (Homo sapiens, UniProt Q12852)
- Construct: 10 nM DLK, catalytic domain, Carna Biosiences; purchased Carna Biosciences ('Carna Biosiences' [sic])
- assay-method-text: DLK biochemical assay (TR-FRET, MKK7 phosphorylation)
- assay-context: DLK catalytic domain, MKK7 substrate, 60 μM ATP
pIC50: −log10 of the molar value.
property-name: pIC50

query: Give its pIC50 value. Item: CC[C@H](C)NC(=O)c1cc(-c2cnn(C3CCN(Cc4ccccc4)CC3)c2)cn2nc(N)nc12 (single isomer, unassigned)
result: 7.62

A = CC[C@H](C)NC(=O)c1cc(-c2cnn(C(c3ccc(F)cc3)C(C)C)c2)cn2nc(N)nc12 (mixture of isomers) [Example I-43]
B = CCC(c1ccc(C(F)F)nc1)n1cc(-c2cc(C(=O)N[C@@H](C)CC)c3nc(N)nn3c2)cn1 (mixture of isomers) [Example I-64]
query: Kindly identify the item with the lower pIC50 figure among these two: A and B Answer format: the label of the selected item.
result: A
(A: 8.54, B: 8.77)

---

- experimental-target: LZK (Homo sapiens, UniProt O43283)
- Construct: 10 nM LZK, catalytic domain, Carna Biosiences in assay buffer; purchased Carna Biosciences ('Carna Biosiences' [sic])
- Sequence (O43283 168-409 limits assumed): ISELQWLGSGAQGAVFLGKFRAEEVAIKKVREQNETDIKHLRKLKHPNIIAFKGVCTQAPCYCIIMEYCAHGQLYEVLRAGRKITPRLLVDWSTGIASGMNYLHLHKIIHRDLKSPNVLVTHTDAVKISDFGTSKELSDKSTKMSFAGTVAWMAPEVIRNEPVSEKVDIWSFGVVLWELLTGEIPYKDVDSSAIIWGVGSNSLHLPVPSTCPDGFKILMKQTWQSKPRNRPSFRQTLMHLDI
- assay-method-text: LZK biochemical assay (TR-FRET, MKK7 phosphorylation)
property-name: IC50 (nM)

P = CC(C)C(c1ccc(C(F)F)nc1)n1cc(-c2cc(-c3ccc(C(F)(F)F)nc3)n3nc(N)nc3c2)cn1 (single isomer, unassigned) [II-65]
Q = CC[C@@H](c1ccccc1)n1cc(-c2cc(-c3cnn(CC)c3)c3nc(N)nn3c2)cn1
R = CCC(c1ccc(C(F)(F)F)nc1)n1cc(-c2cc(-c3ccc(C4CC4)nc3)n3nc(N)nc3c2)cn1 (single isomer, unassigned) [II-56]
query: Arrange the above in rising order of IC50. Kindly provide the labels arranged according to the requested ordering.
result: R, Q, P

---

- experimental-target: DLK (Homo sapiens, UniProt Q12852)
- Construct: 10 nM DLK, catalytic domain, Carna Biosiences; purchased Carna Biosciences ('Carna Biosiences' [sic])
- Sequence (Q12852 125-366 limits assumed): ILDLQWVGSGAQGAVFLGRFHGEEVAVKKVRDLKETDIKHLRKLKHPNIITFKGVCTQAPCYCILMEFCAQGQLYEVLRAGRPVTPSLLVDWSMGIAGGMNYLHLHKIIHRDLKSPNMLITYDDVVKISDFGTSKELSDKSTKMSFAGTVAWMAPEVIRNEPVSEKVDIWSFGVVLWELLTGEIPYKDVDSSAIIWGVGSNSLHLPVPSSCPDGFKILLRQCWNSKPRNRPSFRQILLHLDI
- assay-method-text: DLK biochemical assay (TR-FRET, MKK7 phosphorylation)
- assay-context: DLK catalytic domain, MKK7 substrate, 60 μM ATP
property-name: IC50 (nM)

query: Give its IC50 value. Item: CC[C@H](NC(=O)c1cc(-c2cnn(Cc3ccccc3)c2)cn2nc(N)nc12)C(F)(F)F (single isomer, unassigned) [Example I-133]
result: 110

1 = CC[C@H](C)NC(=O)c1cc(-c2cnn(Cc3cccc4cn[nH]c34)c2)cc2nc(N)nn12 (single isomer, unassigned) [Example I-50]
2 = CC[C@H](C)NC(=O)c1cc(-c2cnn(C3CN(C)C3)c2)cn2nc(N)nc12 [Example I-4]
query: Kindly identify the item with the lower IC50 figure among these two: 1 and 2 Answer format: the label of the selected item.
result: 1
